Target: BAZ2B (Homo sapiens, UniProt Q9UIF8)
Construct: T7 phage strains displaying bromodomains were grown in parallel
Sequence (Q9UIF8 2060-2164 limits assumed): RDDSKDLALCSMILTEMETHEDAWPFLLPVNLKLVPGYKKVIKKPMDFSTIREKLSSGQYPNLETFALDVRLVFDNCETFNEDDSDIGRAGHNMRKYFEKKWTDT
Experiment: BROMOscan Kd determination BAZ2B
Attribute Measured: pKd
Conceptually, pKd converts a concentration in mol/L into minus its log10.

Query :: Indicate its recorded pKd; the molecule in question is Cc1[nH]c(-c2cc(N)ccc2Cl)c2c1C(=O)CCCC2
Result :: 5.74

---

Target: BRD1 (Homo sapiens)
Construct: T7 phage strains displaying bromodomains were grown in parallel
Sequence (O95696 562-666 limits assumed): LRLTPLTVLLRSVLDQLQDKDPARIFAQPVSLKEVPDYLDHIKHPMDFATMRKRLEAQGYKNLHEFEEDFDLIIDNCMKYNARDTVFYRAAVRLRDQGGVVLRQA
Assay: BROMOscan Kd determination BRD1
Attribute Measured: pKd
Conceptually, pKd converts a concentration in mol/L into minus its log10.

Query :: Please look at Cc1[nH]c(-c2cc(N)ccc2Cl)c2c1C(=O)CCCC2 and tell me its recorded pKd on BRD1 (Homo sapiens).
Result :: 5.51

---

Molecular target: BRDT(1) (Homo sapiens, UniProt Q58F21)
Construct: T7 phage strains displaying bromodomains were grown; host or cells: T7 phage in E. coli derived from BL21
Assay: BROMOscan Kd determination BRDT(1)
Assay type: binding
Attribute Measured: pKd
Conceptually, pKd converts a concentration in mol/L into minus its log10.

Query :: Indicate its recorded pKd; the compound in question is COc1ccc(S(=O)(=O)N2CCOCC2)cc1NC(=O)c1[nH]c(C)c2c1CCCCC2=O
Result :: 6.17

Query :: Indicate its recorded pKd; the compound in question is Cc1[nH]c(-c2cc(N)ccc2Cl)c2c1C(=O)CCCC2
Result :: 6.62

Query :: Indicate its recorded pKd; the compound in question is CCCc1[nH]c(-c2cc(N)ccc2Cl)c2c1C(=O)CCCC2
Result :: 5.21

---

Target: PBRM1(5) (Homo sapiens)
Construct: T7 phage strains displaying bromodomains were grown in parallel
Sequence (Q86U86 653-763 limits assumed): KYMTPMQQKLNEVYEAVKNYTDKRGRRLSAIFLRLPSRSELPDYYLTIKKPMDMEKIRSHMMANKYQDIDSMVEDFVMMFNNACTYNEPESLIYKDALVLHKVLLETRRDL
Assay: BROMOscan Kd determination PBRM1(5)
Attribute Measured: Kd (µM)
Give the value, in units of µM, as a plain number.

Query :: Indicate its recorded Kd; the compound in question is Cc1[nH]c(-c2cc(N)ccc2Cl)c2c1C(=O)CCCC2 [Compound 23]
Result :: 3.8

---

Molecular target: BRD8(1) (Homo sapiens)
Construct: T7 phage strains displaying bromodomains were grown
Sequence (Q9H0E9 706-811 limits assumed): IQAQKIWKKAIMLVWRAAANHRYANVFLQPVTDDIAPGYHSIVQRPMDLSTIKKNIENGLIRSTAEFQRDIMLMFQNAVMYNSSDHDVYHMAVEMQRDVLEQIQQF
Assay: BROMOscan Kd determination BRD8(1)
Attribute Measured: pKd
Conceptually, pKd converts a concentration in mol/L into minus its log10.

Query :: Indicate its recorded pKd; the compound in question is Cc1[nH]c(-c2cc(N)ccc2Cl)c2c1C(=O)CCCC2
Result :: 5.59

---

Target: SMARCA2 (Homo sapiens, UniProt P51531)
Construct: T7 phage strains displaying bromodomains were grown in parallel
Sequence (P51531 1378-1506 limits assumed): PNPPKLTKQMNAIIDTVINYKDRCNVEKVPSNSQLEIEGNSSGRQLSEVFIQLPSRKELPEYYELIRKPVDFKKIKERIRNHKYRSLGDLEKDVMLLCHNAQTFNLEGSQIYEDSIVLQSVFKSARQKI
Experiment: BROMOscan Kd determination SMARCA2
pKd: −log10 of the molar value.
Attribute Measured: pKd

Query :: Indicate its recorded pKd; the molecule in question is Cc1[nH]c(-c2cc(N)ccc2Cl)c2c1C(=O)CCCC2
Result :: < 5.00

---

Biological target: BRPF3 (Homo sapiens, UniProt Q9ULD4)
Construct: T7 phage strains displaying bromodomains were grown
Sequence (Q9ULD4 589-693 limits assumed): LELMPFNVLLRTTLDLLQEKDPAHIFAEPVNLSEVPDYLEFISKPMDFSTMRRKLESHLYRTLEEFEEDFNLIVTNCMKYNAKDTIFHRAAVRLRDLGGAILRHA
Experiment: BROMOscan Kd determination BRPF3
Attribute Measured: pKd
Conceptually, pKd converts a concentration in mol/L into minus its log10.

Query :: Indicate its recorded pKd; the molecule in question is Cc1[nH]c(-c2cc(N)ccc2Cl)c2c1C(=O)CCCC2
Result :: 5.22

---

Molecular target: CECR2 (Homo sapiens, UniProt Q9BXF3)
Construct: T7 phage strains displaying bromodomains were grown; host or cells: T7 phage in E. coli derived from BL21
Sequence (Q9BXF3 434-538 limits assumed): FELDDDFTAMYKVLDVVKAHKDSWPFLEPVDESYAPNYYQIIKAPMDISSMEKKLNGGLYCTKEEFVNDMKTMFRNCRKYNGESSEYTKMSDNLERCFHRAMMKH
Experiment: BROMOscan Kd determination CECR2
Assay type: binding
Settings: Table 3 compound 27
pKd: −log10 of the molar value.
Attribute Measured: pKd

Query :: Indicate its recorded pKd; the molecule in question is CCCCc1[nH]c(-c2cc(N)ccc2Cl)c2c1C(=O)CCCC2 [Compound 27]
Result :: < 5.00

---

Biological target: BRDT(1, 2) (Homo sapiens, UniProt Q58F21)
Construct: T7 phage strains displaying bromodomains were grown
Assay: BROMOscan Kd determination BRDT(1, 2)
Attribute Measured: pKd
Conceptually, pKd converts a concentration in mol/L into minus its log10.

Query :: Indicate its recorded pKd; the compound in question is Cc1[nH]c(-c2cc(N)ccc2Cl)c2c1C(=O)CCCC2 [Compound 23]
Result :: 6.38

---

Target: BRD2(1) (Homo sapiens, UniProt P25440)
Construct: T7 phage strains displaying bromodomains were grown in parallel
Sequence (P25440 74-180 limits assumed): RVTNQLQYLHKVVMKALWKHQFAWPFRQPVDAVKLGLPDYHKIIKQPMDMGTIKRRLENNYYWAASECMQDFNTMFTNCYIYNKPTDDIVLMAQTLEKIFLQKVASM
Experiment: BROMOscan Kd determination BRD2(1)
Hi there, I'd appreciate the recorded Kd for every entry that follows.
Please make sure the unit comes right after the number.

Query :: Indicate its recorded Kd; the compound in question is COc1ccc(S(=O)(=O)N2CCOCC2)cc1NC(=O)c1[nH]c(C)c2c1CCCCC2=O
Result :: 0.045 µM

Query :: Indicate its recorded Kd; the compound in question is Cc1[nH]c(-c2cc(N)ccc2Cl)c2c1C(=O)CCCC2
Result :: 0.13 µM

---

Target: BRD4(1) (Homo sapiens)
Construct: BRD4-BD1 was expressed and purified as described previously; made in house
Experiment: Isothermal titration calorimetry, dissociation constant KD BRD4(1)
Assay type: binding
Attribute Measured: pKd
Conceptually, pKd converts a concentration in mol/L into minus its log10.

Query :: Please look at COc1ccc(S(=O)(=O)N2CC3(COC3)C2)cc1NC(=O)c1[nH]c(C)c2c1CCCCC2=O and tell me its recorded pKd on BRD4(1) (Homo sapiens).
Result :: 6.38

Query :: Please look at COc1ccc(S(=O)(=O)N2CCCCCC2)cc1NC(=O)c1[nH]c(C)c2c1CCCCC2=O and tell me its recorded pKd on BRD4(1) (Homo sapiens).
Result :: 6.75

Query :: Please look at COc1ccc(S(=O)(=O)N2CCCCC2)cc1NC(=O)c1[nH]c(C)c2c1CCCCC2=O and tell me its recorded pKd on BRD4(1) (Homo sapiens).
Result :: 7.33

---

Target: BRD2(2) (Homo sapiens, UniProt P25440)
Construct: T7 phage strains displaying bromodomains were grown in parallel
Sequence (P25440 344-453 limits assumed): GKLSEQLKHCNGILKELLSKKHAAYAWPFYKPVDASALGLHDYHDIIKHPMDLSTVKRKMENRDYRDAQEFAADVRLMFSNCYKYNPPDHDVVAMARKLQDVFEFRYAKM
Assay: BROMOscan Kd determination BRD2(2)
Attribute Measured: Kd (nM)
Give the value, in units of nM, as a plain number.

Query :: Indicate its recorded Kd; the molecule in question is COc1ccc(S(=O)(=O)N2CCOCC2)cc1NC(=O)c1[nH]c(C)c2c1CCCCC2=O
Result :: 290

Query :: Indicate its recorded Kd; the molecule in question is Cc1[nH]c(-c2cc(N)ccc2Cl)c2c1C(=O)CCCC2
Result :: 200

---

Target: BRD3(1, 2) (Homo sapiens)
Construct: T7 phage strains displaying bromodomains were grown in parallel
Sequence (Q15059 24-416 limits assumed): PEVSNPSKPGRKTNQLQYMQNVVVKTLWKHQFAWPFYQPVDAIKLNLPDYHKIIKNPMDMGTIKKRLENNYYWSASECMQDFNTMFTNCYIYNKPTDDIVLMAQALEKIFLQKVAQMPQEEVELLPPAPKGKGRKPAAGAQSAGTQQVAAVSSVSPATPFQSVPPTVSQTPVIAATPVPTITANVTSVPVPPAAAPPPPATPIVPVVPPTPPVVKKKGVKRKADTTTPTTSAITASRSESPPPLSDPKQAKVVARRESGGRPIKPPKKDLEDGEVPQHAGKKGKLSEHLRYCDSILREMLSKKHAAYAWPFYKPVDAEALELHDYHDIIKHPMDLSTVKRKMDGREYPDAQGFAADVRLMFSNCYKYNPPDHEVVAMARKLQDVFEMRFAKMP
Experiment: BROMOscan Kd determination BRD3(1, 2)
Attribute Measured: pKd
Conceptually, pKd converts a concentration in mol/L into minus its log10.

Query :: Indicate its recorded pKd; the compound in question is Cc1[nH]c(-c2cc(N)ccc2Cl)c2c1C(=O)CCCC2 [Compound 23]
Result :: 7.00

---

Biological target: BRD3(2) (Homo sapiens, UniProt Q15059)
Construct: T7 phage strains displaying bromodomains were grown in parallel
Sequence (Q15059 306-415 limits assumed): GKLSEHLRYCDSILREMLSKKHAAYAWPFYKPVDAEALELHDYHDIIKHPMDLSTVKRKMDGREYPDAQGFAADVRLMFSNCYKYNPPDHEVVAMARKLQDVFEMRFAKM
Assay: BROMOscan Kd determination BRD3(2)
Hi there, I'd appreciate the recorded pKd for every entry that follows.
Conceptually, pKd converts a concentration in mol/L into minus its log10.

Query :: Indicate its recorded pKd; the compound in question is Cc1[nH]c(-c2cc(N)ccc2Cl)c2c1C(=O)CCCC2
Result :: 6.48

Query :: Indicate its recorded pKd; the compound in question is COc1ccc(S(=O)(=O)N2CCOCC2)cc1NC(=O)c1[nH]c(C)c2c1CCCCC2=O
Result :: 6.85

---

Target: PCAF (Homo sapiens, UniProt Q92831)
Construct: T7 phage strains displaying bromodomains were grown in parallel
Sequence (Q92831 723-827 limits assumed): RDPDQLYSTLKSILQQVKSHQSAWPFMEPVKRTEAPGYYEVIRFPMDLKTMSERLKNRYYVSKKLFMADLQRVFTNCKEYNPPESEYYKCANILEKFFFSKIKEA
Test: BROMOscan Kd determination PCAF
Attribute Measured: Kd

Query :: Indicate its recorded Kd; the compound in question is Cc1[nH]c(-c2cc(N)ccc2Cl)c2c1C(=O)CCCC2
Result :: > 10 µM

---

Molecular target: BRD4(1) (Homo sapiens, UniProt O60885)
Construct: BRD4-BD1 was expressed and purified as described previously; made in house
Assay: BROMOscan Kd determination BRD4(1)
Type: binding
# label = YES if Kd < 200 nM else NO

Query :: Hi there! Is Kd for COc1ccc(S(=O)(=O)N2CC3(COC3)C2)cc1NC(=O)c1[nH]c(C)c2c1CCCCC2=O [Compound 16] below 200 nM, do you know?
Result :: YES

Query :: Hi there! Is Kd for CCCc1[nH]c(-c2cc(N)ccc2Cl)c2c1C(=O)CCCC2 [Compound 26] below 200 nM, do you know?
Result :: NO

Query :: Hi there! Is Kd for COc1ccc(S(=O)(=O)N2CCCCC2)cc1NC(=O)c1[nH]c(C)c2c1CCCCC2=O [Compound 15] below 200 nM, do you know?
Result :: YES

Query :: Hi there! Is Kd for Cc1[nH]c(-c2cc(N)ccc2Cl)c2c1C(=O)CCCC2 [Compound 23] below 200 nM, do you know?
Result :: NO

Query :: Hi there! Is Kd for COc1ccc(S(=O)(=O)N2CCN(C)CC2)cc1NC(=O)c1[nH]c(C)c2c1CCCCC2=O [Compound 14] below 200 nM, do you know?
Result :: NO

Query :: Hi there! Is Kd for COc1ccc(S(=O)(=O)N2CCCCCC2)cc1NC(=O)c1[nH]c(C)c2c1CCCCC2=O [Compound 12] below 200 nM, do you know?
Result :: YES

Query :: Hi there! Is Kd for CCN(CC)S(=O)(=O)c1ccc(OC)c(NC(=O)c2[nH]c(C)c3c2CCCCC3=O)c1 [Compound 11] below 200 nM, do you know?
Result :: YES

Query :: Hi there! Is Kd for COc1ccc(S(=O)(=O)N2CCOCC2)cc1NC(=O)c1[nH]c(C)c2c1CCCCC2=O [Compound 13] below 200 nM, do you know?
Result :: YES
